Parameter kon: see the listing below.
Biological target: T1, recombinant human CD3 epsilon/delta heterodimer (human, UniProt P07766 23-126; P04234 22-105)
T1 construct: Recombinant protein in solution (200-50 nM) in the Octet assay; also called hCD3 E/D; human CD3E/D
T1 sequence (P07766 23-126, stated change not applied, chain 1 of 2): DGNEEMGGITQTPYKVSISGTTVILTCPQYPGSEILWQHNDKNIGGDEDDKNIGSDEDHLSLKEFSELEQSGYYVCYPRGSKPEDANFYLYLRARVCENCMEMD
T1 sequence (P04234 22-105, stated change not applied, chain 2 of 2): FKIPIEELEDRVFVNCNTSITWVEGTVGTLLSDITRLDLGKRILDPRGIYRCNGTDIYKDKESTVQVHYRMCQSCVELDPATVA
Assay: Octet BLI, mAb on FAB2G sensor, hCD3 E/D 200-50 nM; R^2 0.98;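 further: antibodies purified from hybridoma supernatants, measured by Octet binding to recombinant human CD3 protein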
property-measured: kon (M⁻¹ s⁻¹)

ABL-CD3-57 (antibody, V domains shown, Chimeric hybridoma mAb: human V, CH1, upper hinge; mouse middle hinge, CH2, CH3) VH: EVQLVESGGGLVKPGGSLRLSCAASGFTFSSYTMNWVRQAPGKGLEWVSSISTSSRYIYYTDSVKGRFTISRDDAKNSLYLQMNSLRAEDTAVYYCTRNWGYDVFDIWGQGTMVIVSS VL: QPVLTQPSSHSASSGASVRLTCMLSSGFSVGDFWIRWYQQKPGNPPRYLLYYHSDSNKGQGSGVPSRFSGSNDASANAGILRISGLQPEDEADYYCGTWHSNSKTQVFGGGTKLTVL :: 64700
ABL-CD3-61 (antibody, V domains shown, Chimeric hybridoma mAb: human V, CH1, upper hinge; mouse middle hinge, CH2, CH3) VH: EVQLVESGGGLVKPGGSLRLSCAASGFTFSSYSMNWVRQAPGKGLEWVSSISRSGTYIYYADSVKGRFTISRDNAKNSLYLQMNSLRAEDTAVYYCARERWELLYFDYWGQGTLVTVSS VL: QTVVTQEPSLTVSPGGTVTLTCASSTGAVTSGYYPNWFQQKPGQAPRALIYSTSNKHSWTPARFSGSLLGGKAALTLSGVQPEDEAEYYCLLYYGGAYVFGTGTKVTVL :: 187000
ABL-CD3-52 (antibody, V domains shown, Chimeric hybridoma mAb: human V, CH1, upper hinge; mouse middle hinge, CH2, CH3) VH: EVQLVESGGGLVKPGGSLRLSCAASGFTFSYYSMNWVRQAPGKGLEWVSSISRSTTYIYYADSVKGRFTISRDNAKNSLYLQMNSLRAEDTAVYYCARDGKGAIFLDYWGQGTLVTVSS VL: SYELTQPPSVSVSPGQTARITCSGDALPKKYAYWYQQKSGQAPVLVIYEDSKRPSGIPERFSGSSSGTMATLTISGAQVEDEADYYCYSTDSSGNHRVFGGGTKLTVL :: 373000
